The compounds listed here are annotated with their IC50.
Biological target: recombinant human GR (Homo sapiens, UniProt P04150)
Sequence (P04150 1-777): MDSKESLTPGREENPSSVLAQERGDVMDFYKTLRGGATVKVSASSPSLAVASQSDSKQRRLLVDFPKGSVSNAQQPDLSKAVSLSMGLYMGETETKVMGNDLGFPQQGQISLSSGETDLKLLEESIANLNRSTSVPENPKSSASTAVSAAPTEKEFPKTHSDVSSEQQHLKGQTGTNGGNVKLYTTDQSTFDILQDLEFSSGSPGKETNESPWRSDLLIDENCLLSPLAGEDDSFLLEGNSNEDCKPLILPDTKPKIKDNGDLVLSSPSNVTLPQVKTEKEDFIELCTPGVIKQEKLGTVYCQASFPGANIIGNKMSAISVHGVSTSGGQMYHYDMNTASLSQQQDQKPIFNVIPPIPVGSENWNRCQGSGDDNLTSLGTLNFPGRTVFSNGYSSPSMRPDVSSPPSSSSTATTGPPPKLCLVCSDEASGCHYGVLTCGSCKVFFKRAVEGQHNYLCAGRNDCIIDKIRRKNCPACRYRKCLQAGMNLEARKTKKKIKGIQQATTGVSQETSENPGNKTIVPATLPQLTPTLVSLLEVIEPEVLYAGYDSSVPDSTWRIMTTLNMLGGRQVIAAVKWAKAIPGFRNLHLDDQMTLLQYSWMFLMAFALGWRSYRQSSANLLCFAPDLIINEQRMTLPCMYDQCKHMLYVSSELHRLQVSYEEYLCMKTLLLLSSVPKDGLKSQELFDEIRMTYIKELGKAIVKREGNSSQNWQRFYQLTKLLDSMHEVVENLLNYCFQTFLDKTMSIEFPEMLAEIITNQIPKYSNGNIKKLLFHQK
Assay: Human Glucocorticoid Receptor (GR) Assay, fluorescence polarization
Settings: GS Red tracer, incubated 2 h at r.t., XLfit model 205, read-out: GRhuFL_FP_v2 Mean IC50
measured-quantity: IC50 (nM)

In [3]: df
Out[3]:
                                    compound  measured_quantity  readout_number
 0  C[C@H](NC(=O)C(C)(C)C)[C@H](Oc1ccc2c(cnn2-c2ccc(F)cc2)c1)c1ccc2c(c1)OCO2               IC50             7.8
 1  COc1ccccc1[C@@H](Oc1ccc2c(cnn2-c2ccc(F)cc2)c1)[C@H](C)NC(=O)c1ncc(C)s1               IC50             4.1
 2  Cc1ccc(F)cc1[C@@H](Oc1ccc2c(cnn2-c2ccc(F)cc2)c1)[C@H](C)NC(=O)C1(C)CC1               IC50             4.2
 3  COc1ccc([C@@H](Oc2ccc3c(cnn3-c3ccc(F)cc3)c2)[C@H](C)NC(=O)C2(C)CC2)cc1F               IC50             3.9
 4  Cc1ccc([C@@H](Oc2ccc3c(cnn3-c3ccc(F)cc3)c2)[C@H](C)NC(=O)C(C)(C)F)cc1F               IC50             5.5
 5  COc1cccc([C@@H](Oc2ccc3c(cnn3-c3ccc(F)cc3)c2)[C@H](C)NC(=O)[C@@H](C)O)c1               IC50             4.1
 6  COCC(=O)N[C@@H](COC)[C@H](Oc1ccc2c(cnn2-c2ccc(F)cc2)c1)c1cccc(F)c1               IC50              15
 7  Cc1cc(C)c([C@@H](Oc2ccc3c(cnn3-c3ccc(F)cc3)c2)[C@H](C)NC(=O)C(C)(C)C)cc1C (stereo in doubt)               IC50             3.7
 8  COc1ccccc1[C@@H](Oc1ccc2c(cnn2-c2ccc(F)cc2)c1)[C@H](C)NC(=O)C(C)(C)C               IC50             4.5
 9  Cc1cc(F)ccc1[C@@H](Oc1ccc2c(cnn2-c2ccc(F)cc2)c1)[C@H](C)NC(=O)C(C)(F)F               IC50             6.1
10  COc1cccc([C@@H](Oc2ccc3c(cnn3-c3ccc(F)cc3)c2)[C@H](C)NC(=O)c2ccc(C)s2)c1               IC50               4
11  COc1cccc([C@@H](Oc2ccc3c(cnn3-c3ccc(F)cc3)c2)[C@H](C)NC(=O)C2CCCC2)c1               IC50             4.4
12  Cc1ccc([C@@H](Oc2ccc3c(cnn3-c3ccc(F)cc3)c2)[C@H](C)NC(=O)C(C)(C)F)cc1C               IC50             5.9
13  CCc1ccc([C@@H](Oc2ccc3c(cnn3-c3ccc(F)cc3)c2)[C@H](C)NC(=O)C(C)C)cc1               IC50             4.3

###

Molecular target: recombinant human GR (Homo sapiens)
Assay: Human Glucocorticoid Receptor (GR) Assay, fluorescence polarization
Conditions: GS Red tracer, incubated 2 h at r.t., XLfit model 205, read-out: GRhuFL_FP_v2 Mean IC50
Note to self: IC50 under 6 nM means y, ties and anything higher get n.

>>> print(df.to_string())
                                   compound  category
0  Cc1cc(Cl)ccc1[C@@H](Oc1ccc2c(cnn2-c2ccc(F)cc2)c1)[C@H](C)NC(=O)C(F)(F)F [Example 169]         n
1  C[C@H](NC(=O)CO)[C@H](Oc1ccc2c(cnn2-c2ccc(F)cc2)c1)c1ccc2c(c1)OCCO2 [Example 123]         y
2  COc1c(C)cc([C@@H](Oc2ccc3c(cnn3-c3ccc(F)cc3)c2)[C@H](C)NC(=O)C(C)(F)F)cc1C [Example 236]         n
3  COCC(=O)N[C@@H](C)[C@H](Oc1ccc2c(cnn2-c2ccc(F)cc2)c1)c1cc(C)ccc1C [Example 260]         n
4  Cc1c(F)cccc1[C@@H](Oc1ccc2c(cnn2-c2ccc(F)cc2)c1)[C@H](C)NC(=O)C(C)(C)C [Example 190]         y
5  Cc1ccc([C@@H](Oc2ccc3c(cnn3-c3ccc(F)cc3)c2)[C@H](C)NC(=O)C(C)(C)C)cc1C [Example 171]         y
6  CCOC(=O)C(=O)N[C@@H](C)[C@H](Oc1ccc2c(cnn2-c2ccc(F)cc2)c1)c1cccc(OC)c1 [Example 78]         y

###

Biological target: recombinant human GR (Homo sapiens, UniProt P04150)
Sequence (P04150 1-777): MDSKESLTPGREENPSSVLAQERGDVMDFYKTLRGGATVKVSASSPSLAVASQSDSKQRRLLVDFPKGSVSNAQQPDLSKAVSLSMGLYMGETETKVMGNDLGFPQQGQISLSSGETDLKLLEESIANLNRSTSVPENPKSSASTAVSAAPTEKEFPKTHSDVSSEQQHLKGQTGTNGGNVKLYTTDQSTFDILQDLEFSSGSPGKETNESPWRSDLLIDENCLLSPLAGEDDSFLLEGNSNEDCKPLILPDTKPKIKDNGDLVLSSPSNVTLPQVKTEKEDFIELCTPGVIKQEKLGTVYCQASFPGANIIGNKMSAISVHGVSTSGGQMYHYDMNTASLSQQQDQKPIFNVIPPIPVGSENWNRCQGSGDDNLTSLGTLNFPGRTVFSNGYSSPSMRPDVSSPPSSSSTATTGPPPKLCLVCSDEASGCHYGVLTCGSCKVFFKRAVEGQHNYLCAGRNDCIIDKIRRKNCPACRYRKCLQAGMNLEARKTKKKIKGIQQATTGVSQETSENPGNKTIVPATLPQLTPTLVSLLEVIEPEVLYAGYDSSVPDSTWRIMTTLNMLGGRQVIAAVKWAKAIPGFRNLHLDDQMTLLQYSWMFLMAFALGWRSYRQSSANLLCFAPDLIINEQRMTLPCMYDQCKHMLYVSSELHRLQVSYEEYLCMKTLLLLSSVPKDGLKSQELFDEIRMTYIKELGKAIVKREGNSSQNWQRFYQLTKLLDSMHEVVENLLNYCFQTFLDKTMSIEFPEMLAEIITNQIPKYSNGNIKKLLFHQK
Experiment: Human Glucocorticoid Receptor (GR) Assay, fluorescence polarization
Conditions: GS Red tracer, incubated 2 h at r.t., XLfit model 205, read-out: GRhuFL_FP_v2 Mean IC50
pIC50: −log10 of the molar value.
The compounds listed here are annotated with their pIC50.
measured-quantity: pIC50

                                   compound  readout_number
0  C[C@H](NC(=O)C1(C)CC1)[C@H](Oc1ccc2c(cnn2-c2ccc(F)cc2)c1)c1ccc(Cl)cc1 [Example 222]            8.46
1  C[C@H](NC(=O)CCCN)[C@H](Oc1ccc2c(cnn2-c2ccc(F)cc2)c1)c1ccccc1 [Example 28]            7.60
2  Cc1cc2c(cnn2-c2ccc(F)cc2)cc1O[C@H](c1ccccc1)[C@H](C)NC(=O)C(C)(C)C [Example 63]            8.36
3  Cc1cc2c(cnn2-c2ccc(F)cc2)cc1O[C@H](c1ccccc1)[C@H](C)NC(=O)C(F)(F)F [Example 62]            8.46
4  Cc1cccc([C@@H](Oc2ccc3c(cnn3-c3ccc(F)cc3)c2)[C@H](C)NC(=O)C(C)(F)F)c1 [Example 239]            8.05
5  Cc1ccc(C)c([C@@H](Oc2ccc3c(cnn3-c3ccc(F)cc3)c2)[C@H](C)NC(=O)C(C)(C)C)c1 [Example 175]            8.37
6  Cc1ccc([C@@H](Oc2ccc3c(cnn3-c3ccc(F)cc3)c2)[C@H](C)NC(=O)C(C)(C)F)c(C)c1 [Example 245]            8.26
